Exercise: state measured GI50 for each of the compounds provided.
Tested on: SNB-19
protocol summary: NCI tumour cell line growth inhibition, 48 h
Calls of active or inactive are those of the source. Rule as the data show it: active = GI50 up to about 1.1 µM and inactive = higher.

Given "N#Cc1c2c(c(N=[N+]=[N-])n3c1nc1ccccc13)CCCC2" , state its recorded GI50. 2.55 µM (inactive)

Given "CCOC(=O)/C=C(/C(=O)OCC)n1ccc(=O)n(/C(=C/C(=O)OCC)C(=O)OCC)c1=O" , state its recorded GI50. 20.3 µM (inactive)

Given "O=C(CN(c1ccc(S(=O)(=O)O)cc1)c1ccc(S(=O)(=O)O)cc1)Nn1cnc2ccc(S(=O)(=O)N(c3ccc(S(=O)(=O)O)cc3)c3ccc(S(=O)(=O)O)cc3)cc2c1=O" , state its recorded GI50. > 100 µM (inactive)

Given "CCOc1cc2c(cc1O)/C(=N/NS(=O)(=O)c1ccc(C)cc1)C[C@@H]1[C@@H]2CC[C@]2(C)[C@@H](O)CC[C@@H]12" , state its recorded GI50. 8.79 µM (inactive)

###

Test system: PC-3
protocol summary: NCI tumour cell line growth inhibition, 48 h
Activity calls are given as the source filed them. Cut-off read from the data, not from the text of the source: active = GI50 up to about 1.1 µM and inactive = higher.
Answer with one of the outcomes active, inactive

Returns: the outcome recorded for NCCOCC(N)C(=O)O (stereo not given) in this assay. inactive

Returns: the outcome recorded for CC1=CCC(=O)[C@]2(C)C(CC(=O)O)[C@]3(C)C4=C(C)C(c5ccoc5)C[C@@H]4O[C@@H]3[C@H](O)[C@@H]12 (stereo not given in full) in this assay. inactive

Returns: the outcome recorded for "CCc1cc(O)c(Cl)c(C)c1Cl" in this assay. inactive

Returns: the outcome recorded for "COc1ccc2nc3ccccc3c(NCCCCCN(CCCl)CCCl)c2c1" in this assay. active

Returns: the outcome recorded for COc1ccccc1[C@@H]1CCC2CC[C@@H](c3ccccc3OC)[N+]21Cc1ccccc1 (stereo not given in full) in this assay. inactive

Returns: the outcome recorded for "CCCCCCCCCc1nn2c(Cc3ccccc3)nnc2s1" in this assay. inactive

Returns: the outcome recorded for CCCCCC(C)SC1(C(=O)OC)CC(OC(C)=O)C(NC(C)=O)C([C@H](OC(C)=O)[C@@H](COC(C)=O)OC(C)=O)O1 (stereo not given in full) in this assay. inactive

Returns: the outcome recorded for "COc1ccc(-c2cc(-c3cc(F)c(Cl)cc3Cl)[nH]n2)cc1OC" in this assay. inactive

Returns: the outcome recorded for "Fc1ccc(/C(=N/Cc2ccccc2)N2CCOCC2)cc1" in this assay. inactive

Returns: the outcome recorded for "N[C@@H]1CCN(c2c(F)cc3c(=O)c(C(=O)O)cn4c3c2Oc2cc3c(ccc5ccccc53)cc2-4)C1" in this assay. inactive

###

Test system: NCI-H226
protocol summary: NCI tumour cell line growth inhibition, 48 h
Calls of active or inactive are those of the source. No stated cut-off is given here; in the data, active = GI50 up to about 1.1 µM and inactive = higher.
observation type: GI50

Given CC(C)=CCC(O)[C@](C)(O)[C@H]1[C@H](O)C[C@@]2(C)[C@@H]3CCc4cc(O)c(OC5OC(CO)C(O)C(O)C5O)cc4C3(C)C(=O)C[C@]12C (stereo not given in full) , state its recorded GI50. > 100 µM (inactive)

Given "O=C(N/N=C\c1ccc(Cl)cc1)Nc1cccc2ccccc12" , state its recorded GI50. 10.4 µM (inactive)

Given COc1cc(=O)oc(/C=C/C=C/C=C/C(C)=C\C2(C)OC(C)C(C)(O)C2O)c1C (stereo not given) , state its recorded GI50. > 100 µM (inactive)

Given CCCCCC(C)SC1(C(=O)OC)CC(OC(C)=O)C(NC(C)=O)C([C@H](OC(C)=O)[C@@H](COC(C)=O)OC(C)=O)O1 (stereo not given in full) , state its recorded GI50. 40.6 µM (inactive)

Given COc1ccc(/C=C/C(=O)NCC(NC(=O)/C=C/c2ccc(OC)c(OC)c2)C(=O)O)cc1OC (stereo not given) , state its recorded GI50. > 100 µM (inactive)

Given "COc1cccc(NC(=O)/C(Cc2nc3ccccc3nc2C)=N/NC(=O)C[n+]2ccccc2)c1" , state its recorded GI50. > 100 µM (inactive)

Given "COc1cccc(NCC(=O)Nn2c(-c3ccccc3)nc3ccccc3c2=O)c1" , state its recorded GI50. > 100 µM (inactive)

Given COC(=O)CCN1CCN(CCO)CC1C (stereo not given) , state its recorded GI50. > 10 µM (inactive)

Given CCCCCCCCCCCCCC(=O)OC1C(O)C(CO)OC(OC)C1NC(=O)N(CCCl)N=O (stereo not given) , state its recorded GI50. > 100 µM (inactive)

Given "c1ccc(C2=NN=C3C(c4ccccc4)=Nc4ccccc4N3C2)cc1" , state its recorded GI50. 14.9 µM (inactive)
